Data provenance is ChEMBL document CHEMBL1156769.

test system: Coxsackievirus B3; assay: Antiviral activity against Coxsackievirus B3 infected in african green monkey Vero cells assessed as reduction of virus-induced cytopathic effect after 3 days by MTS assay; format: functional, organism-based; details: Enterovirus B, 72 h
Listed next: entries and their corresponding EC50.

                               smiles_code    result
0          Clc1ncnc2c1ncn2-c1ccc2c(c1)OCO2  > 100 µM
1       OCc1cccc(-n2cnc3c(Cl)nc(Cl)nc32)c1  > 8.8 µM
2  COc1ccc(C(C)=O)cc1-n1cnc2c(Cl)nc(C)nc21  > 100 µM

Test system Coxsackievirus B3; read-out EC50; what value for Cc1ncnc2c1ncn2-c1cccc(CO)c1 ?
> 100 µM

Fill in the recorded EC50 for this compound, with Coxsackievirus B3 as test system: CC(=O)c1cccc(-n2nnc3c(Cl)nc(C)nc32)c1
> 44 µM

Query the reported EC50 for Coxsackievirus B3; item: CNc1ncnc2c1ncn2-c1cccc(CO)c1
> 100 µM

Please tell me: EC50 of COc1ccc(C(C)=O)cc1-n1cnc2c(Cl)ncnc21 , system Coxsackievirus B3?
> 57 µM
